test.method.notes: MT1-MMP gene expression reporter suppression – cell-based, luciferase reporter, luminescence (AID 618);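 note: actives suppress MT1-MMP promoter-driven transcription so potencies describe inhibitors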
study.conditions: MT1-MMP promoter luciferase reporter cells
Out of some 87,000 compounds screened, about 540 (0.62%) were called active. The sample holds actives, similar compounds and a random draw of the others, so the mix is not that of the screen. Entries with a potency or affinity are not part of this list.
parameter: outcome

compound	parameter	obs.value
O=C1CC(N2CCC(n3c(=O)[nH]c4ccccc43)CC2)C(=O)N1c1ccc(F)cc1 (stereo not given)	outcome	inactive
Cc1ccc(C2(O)CC(C)N(C)CC2C)cc1 (stereo not given)	outcome	inactive
O=c1[nH]c2ccccc2n1C1CCN(CCCC(c2ccc(F)cc2)c2ccc(F)cc2)CC1	outcome	active
CC(C)c1cccc(C(C)C)c1OCCn1ccnc1	outcome	inactive

--- query ---
Please give measured outcome of the following entry: COC(=O)C1CN(C#N)N(c2ccc(Cl)cc2)C12c1ccccc1-c1ccccc12 (stereo not given)
active
